- TARGET: Bromodomain-containing protein 4 (Homo sapiens)
- EXPERIMENT_SUMMARY: Displacement of Alexafluor 647-conjugated PFI-1 from N-terminal-His6-tagged human BRD4 BD1 domain (44 to 170 residues) incubated for 30 mins by fluorescence polarization assay
pIC50: −log10 of the molar value.
PROPERTY_LABEL: pIC50

CN(C[C@H]1CC[C@H](N)CC1)c1ccc2nncn2n1
4.93

a = Cc1nnc2ccc(N(C)CCC3CCNCC3)nn12
b = CCc1nnc2ccc(N(C)C[C@H]3CC[C@H](N)CC3)nn12
Could you tell me which of a and b has the lower pIC50 reading? Could you answer with the label of the item you picked? a
